PROTOCOL_NOTES: NIH3T3 cell viability loss – ATP luminescence, mouse fibroblasts, counter-screen, dose response (AID 2010);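 further: cells exposed to compound for about 90 hours before reading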
Assay type: functional, cell-based
Activity calls are given as the source filed them.
So I've got a bunch of compounds here, and I need their EC50 values.

INSERT INTO assay_data (chemical_structure, result) VALUES
  ('CCOC(=O)c1c(CSc2ccc(CC)cc2)oc2ccc(O)c(CN(C)C)c12', '> 30 µM (not active)'),
  ('Cn1c(=O)[nH]c(=O)c2c1nc(Br)n2CCCSc1nc2ccccc2o1', '15.8 µM (active)');

Entry COc1c(Cl)cc(Cl)cc1C(=O)Nc1ccc(NC(=O)c2cccs2)cc1 — recorded EC50 = > 60 µM (not active)

---

TEST_SYSTEM: Leucine aminopeptidase (Plasmodium falciparum 3D7, UniProt Q8IL11)
Sequence (Q8IL11 whole entry): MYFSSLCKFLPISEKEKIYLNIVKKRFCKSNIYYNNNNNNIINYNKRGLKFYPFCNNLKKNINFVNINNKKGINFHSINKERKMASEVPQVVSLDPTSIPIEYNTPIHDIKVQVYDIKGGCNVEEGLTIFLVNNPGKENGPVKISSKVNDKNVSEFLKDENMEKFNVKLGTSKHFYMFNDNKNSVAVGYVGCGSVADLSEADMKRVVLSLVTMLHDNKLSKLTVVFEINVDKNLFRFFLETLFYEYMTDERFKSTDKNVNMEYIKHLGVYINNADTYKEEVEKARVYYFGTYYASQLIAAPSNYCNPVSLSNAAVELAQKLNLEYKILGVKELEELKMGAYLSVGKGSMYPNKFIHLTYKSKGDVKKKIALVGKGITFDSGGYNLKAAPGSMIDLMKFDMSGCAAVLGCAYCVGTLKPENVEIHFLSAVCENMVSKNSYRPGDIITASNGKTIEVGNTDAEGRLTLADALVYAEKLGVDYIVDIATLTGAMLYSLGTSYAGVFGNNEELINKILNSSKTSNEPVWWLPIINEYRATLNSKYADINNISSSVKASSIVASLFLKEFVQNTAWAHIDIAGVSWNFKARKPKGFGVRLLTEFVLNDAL
PROTOCOL_NOTES: P. falciparum M17LAP inhibitors, primary screen, biochemical, fluorogenic H-Leu-NHMec substrate, 1536-well (AID 1619)
Type: functional
Activity calls are given as the source filed them.
Please respond with reported IC50 for every item in the list.

// input: 4 compounds below; output: IC50 for each
1. CCOc1ccc(NC(=O)CSc2nc(N)c(-c3ccccc3)c(=O)[nH]2)cc1
2. C/C(=N\NC(=O)Cc1c(C)n[nH]c1O)c1ccc2ccccc2c1
3. Cn1c(SCC(=O)NCc2ccc3c(c2)OCO3)nnc1C1COc2ccccc2O1 (centres undefined)
4. CC1=NNC(=O)C1CCC(=O)N/N=C\c1ccc(Cl)c(Cl)c1 (centres undefined)

Result:
1. 5.72 µM (active)
2. 14 µM (active)
3. < 1 µM (active)
4. 15 µM (active)

---

What AC50 was measured for each of the following?
TEST_SYSTEM: Trypsin (Sus scrofa, UniProt P00761)
Sequence (P00761 whole entry): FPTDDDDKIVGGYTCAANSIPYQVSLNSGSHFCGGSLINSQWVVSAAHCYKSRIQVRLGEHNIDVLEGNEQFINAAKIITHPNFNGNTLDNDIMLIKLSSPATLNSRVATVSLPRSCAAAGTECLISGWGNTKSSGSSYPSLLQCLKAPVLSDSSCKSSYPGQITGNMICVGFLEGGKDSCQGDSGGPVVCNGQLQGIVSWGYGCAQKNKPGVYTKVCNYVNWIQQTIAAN
PROTOCOL_NOTES: trypsin protease activity blockade – biochemical, quenched peptide fluorescence, cherry-pick, selectivity assay for Rce1 protease inhibitor project, dose response (AID 488789)
Calls of active or inactive are those of the source.

Use the examples below as a reference point.
INSERT INTO measurements (chemical_structure, result) VALUES
  ('COc1ccc(-n2nc(C(=O)NCC(=O)NCc3ccc(F)cc3)c3ccccc3c2=O)cc1', '9.62 µM (active)'),
  ('Cc1ccc(S(=O)(=O)Cc2cn3cccnc3n2)cc1', '25.1 µM (active)'),
  ('CCc1cc(=O)oc2c3c(cc(OCC(=O)NCCCC(=O)O)c12)OC(C)(C)CC3', '7.16 µM (active)');

Would you kindly look at the next entry?
Sample COc1ccc(-c2c(-c3ccsc3)oc3ccc(N4CCOCC4)cc23)cn1 , system: Trypsin (Sus scrofa, UniProt P00761). Its AC50 is 9.22 µM (active)

---

TEST_SYSTEM: Paired box protein Pax-8 (Homo sapiens, UniProt Q06710)
Sequence (Q06710 whole entry): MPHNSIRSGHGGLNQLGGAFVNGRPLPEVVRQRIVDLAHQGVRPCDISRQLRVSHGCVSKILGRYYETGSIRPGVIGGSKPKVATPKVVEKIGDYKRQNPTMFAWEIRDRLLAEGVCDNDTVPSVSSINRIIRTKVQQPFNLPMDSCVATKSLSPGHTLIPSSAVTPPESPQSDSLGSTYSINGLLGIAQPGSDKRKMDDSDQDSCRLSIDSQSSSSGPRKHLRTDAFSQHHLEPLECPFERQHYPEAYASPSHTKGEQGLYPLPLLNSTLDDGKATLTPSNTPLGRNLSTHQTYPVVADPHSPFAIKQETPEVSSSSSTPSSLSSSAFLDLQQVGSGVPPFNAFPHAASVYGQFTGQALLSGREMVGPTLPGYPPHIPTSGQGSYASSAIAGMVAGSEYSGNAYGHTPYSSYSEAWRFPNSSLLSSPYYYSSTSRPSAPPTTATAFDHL
PROTOCOL_NOTES: PAX8 transcriptional activity inhibition in RMG-I – RMG-I cells, luciferase, cherry-pick, dose response (AID 687027);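 further: luciferase reporter driven by Pax8 target thyroperoxidase promoter measured by SteadyGlo luminescence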
Assay type: functional, cell-based
Active and inactive are the calls of the source.
Please go through the items and note down their AC50.

For orientation, consider the following solved cases.
INSERT INTO results (chemical_structure, result) VALUES
  ('CCO[C@H]1OC(C(=O)N2CCN(Cc3ccccc3)CC2)=C[C@@H](c2ccc(C(F)(F)F)cc2)[C@@H]1CCCO', '14.3 µM (active)'),
  ('C[C@@H]1CN([C@H](C)CO)C(=O)c2cc(NC(=O)Cc3ccccc3)ccc2O[C@@H](C)CCCCO[C@@H]1CN(C)Cc1ccc(C(F)(F)F)cc1', '7.22 µM (active)'),
  ('O=C(C[C@@H]1C[C@H]2c3cc(NC(=O)C4CCOCC4)ccc3O[C@H]2[C@H](CO)O1)NCc1ccc(Oc2ccccc2)cc1', '34.3 µM (active)'),
  ('CCCC#Cc1ccc([C@@H]2[C@H]3CN(S(=O)(=O)c4ccccc4F)CCCCN3[C@H]2CO)cc1', '22.4 µM (active)');

Sure, the documented AC50 for COc1cccc(-c2ccc3c(c2)[C@@H]2[C@@H](CCN2C(=O)NC2CCCCC2)[C@H](CO)N3C)c1 is 10.9 µM (active)

---

TEST_SYSTEM: Sentrin-specific protease 8 (Homo sapiens);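 further: luminescence read-out of SENP8 inhibition, dose-response confirmation following an ultra-high-throughput screen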
Sequence (Q96LD8 whole entry): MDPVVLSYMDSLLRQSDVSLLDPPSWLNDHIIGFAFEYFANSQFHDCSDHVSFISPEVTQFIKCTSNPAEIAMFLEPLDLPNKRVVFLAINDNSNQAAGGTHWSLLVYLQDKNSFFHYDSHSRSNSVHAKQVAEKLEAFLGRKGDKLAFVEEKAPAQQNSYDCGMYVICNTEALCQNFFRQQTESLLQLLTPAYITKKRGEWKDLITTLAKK
Format: functional
Active and inactive are the calls of the source.
Permitted responses: 1 (yes) for active, 0 (no) for inactive

# count of solved cases: 3
INSERT INTO results (chemical_structure, label_class) VALUES
  ('Cc1c(Cl)cnc(NC(=O)COC(=O)c2ccc([N+](=O)[O-])s2)c1Cl', '1 (yes)'),
  ('CCOC(=O)c1ccccc1N/C=C/C(=O)c1ccccc1', '1 (yes)'),
  ('Cc1ccc(C(=O)COC(=O)c2cccc(NC(=O)c3ccc([N+](=O)[O-])cc3[N+](=O)[O-])c2)cc1', '0 (no)');

Could you now consider this next molecule?
Request: Per the assay record, what outcome was assigned to O=C(O)c1cccc(-c2nnn(Cc3ccccc3Cl)n2)c1 ?
Result: 1 (yes)

---

Provide the recorded EC50 for the entries that follow.
PROTOCOL_NOTES: NIH3T3 cell viability loss – ATP luminescence, mouse fibroblasts, counter-screen, dose response (AID 2010);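 further: cells exposed to compound for about 90 hours before reading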
Type: functional, cell-based

Before answering, review these 4 worked examples.
INSERT INTO measurements (chemical_structure, attribute_measured, result) VALUES
  ('CCOC(=O)C1(CCOc2ccccc2)CCN(Cc2cccc3nonc23)CC1', 'EC50', '> 60 µM (not active)'),
  ('Cc1ccc(C(=O)COC(=O)c2cccc(NC(=O)c3ccc([N+](=O)[O-])cc3[N+](=O)[O-])c2)cc1', 'EC50', '> 60 µM (not active)'),
  ('O=C(NCCCN1CCN(CCCNC(=O)c2cccc([N+](=O)[O-])c2)CC1)c1cccc([N+](=O)[O-])c1', 'EC50', '> 30 µM (not active)'),
  ('CCc1ccc2c(c1)C(c1ccc(N3CCOCC3)cc1)=NNC(c1ccncc1)=N2', 'EC50', '> 30 µM (not active)');

Now consider the entry below.
The recorded EC50 for entry O=S(=O)(Nc1ccc(-c2csc(-c3ccccc3)n2)cc1)c1ccc(F)cc1 equals > 60 µM (not active)

---

Please go through the items and note down their IC50.
TEST_SYSTEM: Aminopeptidase N (Plasmodium falciparum FcB1/Columbia)
Sequence (O96935 whole entry): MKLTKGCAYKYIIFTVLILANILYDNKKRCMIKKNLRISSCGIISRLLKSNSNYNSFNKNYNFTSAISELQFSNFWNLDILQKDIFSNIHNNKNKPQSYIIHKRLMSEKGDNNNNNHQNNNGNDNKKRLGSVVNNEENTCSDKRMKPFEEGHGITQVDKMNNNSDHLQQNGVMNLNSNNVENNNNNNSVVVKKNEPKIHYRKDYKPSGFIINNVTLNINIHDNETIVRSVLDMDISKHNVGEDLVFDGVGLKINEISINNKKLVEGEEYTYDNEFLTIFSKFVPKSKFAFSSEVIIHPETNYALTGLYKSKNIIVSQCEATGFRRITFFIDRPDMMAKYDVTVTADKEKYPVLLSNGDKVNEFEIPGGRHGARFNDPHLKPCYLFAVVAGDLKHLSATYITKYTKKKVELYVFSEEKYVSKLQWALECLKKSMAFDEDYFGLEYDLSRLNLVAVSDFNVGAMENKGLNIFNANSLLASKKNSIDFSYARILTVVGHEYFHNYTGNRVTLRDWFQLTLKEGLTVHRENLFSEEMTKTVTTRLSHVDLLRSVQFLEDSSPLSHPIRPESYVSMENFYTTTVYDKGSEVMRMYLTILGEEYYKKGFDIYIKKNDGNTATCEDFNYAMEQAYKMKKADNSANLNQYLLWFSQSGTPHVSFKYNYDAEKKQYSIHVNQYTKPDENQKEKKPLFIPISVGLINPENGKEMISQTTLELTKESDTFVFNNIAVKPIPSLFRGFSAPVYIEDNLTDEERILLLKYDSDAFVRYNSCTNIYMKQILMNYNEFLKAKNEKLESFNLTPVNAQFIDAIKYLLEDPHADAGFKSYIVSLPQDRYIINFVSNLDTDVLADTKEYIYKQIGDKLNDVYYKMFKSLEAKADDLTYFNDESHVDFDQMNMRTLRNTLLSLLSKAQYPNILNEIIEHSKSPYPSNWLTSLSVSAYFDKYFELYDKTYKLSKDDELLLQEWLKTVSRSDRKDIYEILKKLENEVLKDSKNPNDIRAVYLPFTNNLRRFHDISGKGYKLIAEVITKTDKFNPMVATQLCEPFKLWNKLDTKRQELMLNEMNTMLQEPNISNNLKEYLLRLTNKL
PROTOCOL_NOTES: malaria alanyl aminopeptidase activity blockers – biochemical, fluorogenic H-Leu-NHMec substrate, 1536-well (AID 1445)
Design: species or system Plasmodium falciparum 3D7, 3D7
Calls of active or inactive are those of the source.

As a guide, the following entries are already answered.
INSERT INTO results (molecule, attribute_measured, result) VALUES
  ('O=C(O)c1ccc(NC(S)=NC(NC(=O)c2ccco2)C(Cl)(Cl)Cl)cc1 (stereo unspecified)', 'IC50', '60.5 µM (active)'),
  ('COc1ccc(C2CC(c3c(-c4ccccc4)c4cc(Cl)ccc4[nH]c3=O)=NN2C(=O)CCC(=O)O)cc1 (stereo unspecified)', 'IC50', '4.93 µM (active)'),
  ('Cc1c(O)c(CN2CCCC2)cc2c3c(c(=O)oc12)CCC3', 'IC50', '42.6 µM (active)'),
  ('COC(=O)Cc1c(C)c2ccc(O)c(CN3CCCC(C)C3)c2oc1=O (stereo unspecified)', 'IC50', '30 µM (active)'),
  ('Cc1ccccc1N1C(=O)/C(=C/NNC(=O)c2ccccc2O)C(=O)NC1=S', 'IC50', '11.5 µM (active)');

As a next step, examine the molecule that follows.
# lookup: Cc1cc(=O)oc2cc3c(cc12)OCCN3 on Aminopeptidase N (Plasmodium falciparum FcB1/Columbia), IC50 = 32.8 µM (active)

---

TEST_SYSTEM: Protein skinhead-1 (Caenorhabditis elegans, UniProt P34707)
Sequence (P34707 whole entry): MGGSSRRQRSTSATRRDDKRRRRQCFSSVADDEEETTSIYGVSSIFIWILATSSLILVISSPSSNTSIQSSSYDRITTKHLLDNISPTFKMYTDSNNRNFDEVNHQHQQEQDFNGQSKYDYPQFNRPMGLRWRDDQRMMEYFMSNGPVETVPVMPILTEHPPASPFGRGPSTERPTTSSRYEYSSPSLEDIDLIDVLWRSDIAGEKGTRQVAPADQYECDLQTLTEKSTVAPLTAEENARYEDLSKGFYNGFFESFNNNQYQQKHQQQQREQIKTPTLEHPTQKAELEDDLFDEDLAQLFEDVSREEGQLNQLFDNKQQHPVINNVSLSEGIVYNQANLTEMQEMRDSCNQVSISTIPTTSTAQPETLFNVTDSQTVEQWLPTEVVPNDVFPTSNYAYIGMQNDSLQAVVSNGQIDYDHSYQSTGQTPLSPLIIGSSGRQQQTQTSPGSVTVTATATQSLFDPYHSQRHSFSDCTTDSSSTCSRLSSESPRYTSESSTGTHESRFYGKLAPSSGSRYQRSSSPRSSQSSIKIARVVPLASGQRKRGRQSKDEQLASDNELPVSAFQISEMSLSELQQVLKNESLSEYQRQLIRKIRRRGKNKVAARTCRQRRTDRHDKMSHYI
Assay type: functional
The source made the active and inactive calls.
For each of the molecules below, state its IC50.

Recorded IC50, per entry:
INSERT INTO assay_data (molecule, result) VALUES
  ('COc1cc(/C=C2/SC(=S)N(Cc3ccccc3)C2=O)cc(Cl)c1O', '> 100 µM (inactive)'),
  ('O=C1c2cc(Br)ccc2OC2C=CC=CC12 (configuration not stated)', '81 µM (inactive)'),
  ('Cc1ccccc1[S+]([O-])Cc1ccc(C(=O)N2CCN(C(=O)c3ccco3)CC2)o1 (configuration not stated)', '> 100 µM (inactive)'),
  ('C[C@H](NC(=O)c1[nH]cnc1C(=O)Nc1ccc(Cl)cc1)C(=O)OC(C)(C)C', '> 100 µM (inactive)'),
  ('Cc1ccccc1NC(=O)CCC(=O)OCC(=O)c1cccc([N+](=O)[O-])c1', '> 100 µM (inactive)'),
  ('O=C(COC(=O)c1ccc(Cl)nc1)Nc1ccc2ccccc2c1', '> 100 µM (inactive)');

Provide each entry's IC50 from the list below.
1. O=C1c2ccccc2C(=O)c2c1ccc(C(=O)N1CCCCC1)c2NCCO
2. CC1CCN(c2oc(-c3ccccc3F)nc2C#N)CC1
3. CSc1cc(-c2ccco2)oc1C(=O)c1ccco1
4. CCc1ccc(NC(=O)c2cc(-c3ccco3)on2)cc1

Result:
1: > 100 µM (inactive); 2: > 100 µM (inactive); 3: > 100 µM (inactive); 4: > 100 µM (inactive)

Each of the following entries comes with a recorded value; kindly state IC50 for each.
1. Cc1ccc(NC(=O)c2cccs2)cc1NC(=O)c1ccco1
2. CCC(c1nnnn1Cc1ccc2c(c1)OCO2)N1CCN(c2ccc(F)cc2)CC1 (configuration not stated)

Result:
1. > 100 µM (inactive)
2. > 100 µM (inactive)

Where these numbers come from: ChEMBL document CHEMBL1201862
